target: USP7 (Homo sapiens); construct: USP7, construct USP7 (208-1102) 6*His, Viva Biotech; 6xHis (C); purchased Viva Biotech; test: USP7 Assay A (Ubitquin-Rhodamine 110 Assay); type: biochemical; conditions: USP7 activity in USP7 assay A and B (table does not say which assay per compound); read-out: USP7_IC50
pIC50: −log10 of the molar value.
Below, each of the compounds is paired with its reported pIC50 value.

Compound	Quantity Kind	Meas Value
Cn1cc(OC2CCN(C(=O)N3CCC(O)(Cn4cnc5c(cnn5-c5ccc(F)cc5)c4=O)CC3)CC2)cn1	pIC50	5.00 to 6.00

Please fill in: pIC50 reported for O=C(C1CCC(n2cccn2)CC1)N1CCC(O)(Cn2cnc3c(cnn3-c3ccc(F)cc3)c2=O)CC1 (stereo not shown) [Compound I-549] = 5.00 to 6.00

Please fill in: pIC50 reported for O=C(C1CC(Nc2ccccn2)C1)N1CCC(O)(Cn2cnc3c(cnn3-c3ccc(F)cc3)c2=O)CC1 (stereo not shown) [Compound I-1035] = 6.00 to 6.70

Please fill in: pIC50 reported for O=C(C1CCC(Oc2ccccn2)CC1)N1CCC(O)(Cn2cnc3c(cnn3-c3ccc(CO)cc3)c2=O)CC1 (stereo not shown) [Compound I-853] = 6.00 to 6.70

Please fill in: pIC50 reported for O=C(C1CCC(Oc2ccccn2)CC1)N1CCC(O)(Cn2cnc3c(cnn3-c3ccc(F)cc3)c2=O)CC1 (stereo not shown) [Compound I-545] = 6.00 to 6.70

Please fill in: pIC50 reported for O=C(C1CCC(Oc2ccccn2)CC1)N1CCC(O)(Cn2cnc3c(ccn3-c3ccc(F)cc3)c2=O)CC1 (stereo not shown) [Compound I-1038] = > 6.70

Please fill in: pIC50 reported for `O=C(C1CC1)N1CCC(O)(Cn2cnc3c(cnn3-c3ccc(-c4cccc5oncc45)cc3)c2=O)CC1` = 5.00 to 6.00

---

target: USP7 (Homo sapiens, UniProt Q93009); construct: USP7, construct USP7 (208-1102) 6*His, Viva Biotech; 6xHis (C); purchased Viva Biotech; assay: USP7 Assay A (Ubitquin-Rhodamine 110 Assay); format: biochemical; conditions: USP7 activity in USP7 assay A and B (table does not say which assay per compound); read-out: USP7_IC50
Sequence (Q93009 208-1102): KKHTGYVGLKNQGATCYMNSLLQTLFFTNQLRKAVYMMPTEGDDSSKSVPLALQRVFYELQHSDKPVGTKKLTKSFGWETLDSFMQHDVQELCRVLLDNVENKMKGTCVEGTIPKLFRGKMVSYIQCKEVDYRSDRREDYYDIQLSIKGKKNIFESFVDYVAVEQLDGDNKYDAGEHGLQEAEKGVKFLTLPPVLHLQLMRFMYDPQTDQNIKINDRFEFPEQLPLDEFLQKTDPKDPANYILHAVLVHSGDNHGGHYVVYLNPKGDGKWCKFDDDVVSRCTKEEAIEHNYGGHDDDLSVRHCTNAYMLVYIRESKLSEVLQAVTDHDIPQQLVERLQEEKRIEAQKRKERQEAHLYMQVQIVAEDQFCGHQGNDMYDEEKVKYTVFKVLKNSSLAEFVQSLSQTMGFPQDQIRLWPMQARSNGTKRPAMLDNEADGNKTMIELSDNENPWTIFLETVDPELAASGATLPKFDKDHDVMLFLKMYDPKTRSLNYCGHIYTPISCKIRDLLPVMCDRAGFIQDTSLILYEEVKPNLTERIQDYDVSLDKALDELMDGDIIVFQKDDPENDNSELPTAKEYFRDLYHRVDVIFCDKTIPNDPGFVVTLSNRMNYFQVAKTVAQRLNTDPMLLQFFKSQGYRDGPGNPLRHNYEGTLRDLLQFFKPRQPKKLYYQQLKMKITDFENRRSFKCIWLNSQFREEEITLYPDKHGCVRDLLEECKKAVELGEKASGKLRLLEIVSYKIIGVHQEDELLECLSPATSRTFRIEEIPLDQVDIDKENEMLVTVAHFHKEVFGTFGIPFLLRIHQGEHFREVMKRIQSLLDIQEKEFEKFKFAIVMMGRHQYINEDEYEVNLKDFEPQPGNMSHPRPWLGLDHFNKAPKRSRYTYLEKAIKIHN
Below, each of the compounds is paired with its reported IC50 value.

Worked cases, IC50 given:
Compound	Quantity Kind	Meas Value
O=C(C1CC1)N1CCC(O)(Cn2cnc3c(cnn3-c3ccc(N4CCC5(CC4)CC5)cc3)c2=O)CC1 [Compound I-1755]	IC50	1000 to 10000 nM
O=C(c1ccc(N2CCN3CCCC3C2)cc1)N1CCC(O)(Cn2cnc3c(cnn3-c3ccc(F)cc3)c2=O)CC1 (centres unmarked) [Compound I-487]	IC50	1000 to 10000 nM
O=C(c1ccn(C2CC2)n1)N1CCC(O)(Cn2cnc3c(cnn3-c3ccc(Cl)cc3)c2=O)CC1 [Compound I-1093]	IC50	1000 to 10000 nM
O=c1c2cnn(-c3ccccc3)c2ncn1CC1(O)CCN(C(=O)[C@H]2CC[C@H](Nc3cccnc3F)CC2)CC1 [Compound I-1039b]	IC50	< 200 nM
CN1CCN(c2ncc(C(=O)N3CCC(O)(Cn4cnc5c(cnn5-c5ccc(Cl)cc5)c4=O)CC3)o2)CC1 [Compound I-1085]	IC50	1000 to 10000 nM
Cc1ncc(C(=O)N2CCC(O)(Cn3cnc4c(cnn4-c4ccc(-n5cc(C(F)(F)F)cn5)cc4)c3=O)CC2)o1 [Compound I-1688]	IC50	< 200 nM
O=C(c1cn[nH]c1Cc1ccccc1)N1CCC(O)(Cn2cnc3c(cnn3-c3ccc(F)cc3)c2=O)CC1 [Compound I-603]	IC50	< 200 nM
Cc1nnc(-c2ccc(-n3ncc4c(=O)n(CC5(O)CCN(C(=O)c6ccc(F)cc6)CC5)cnc43)cc2)o1 [Compound I-712]	IC50	1000 to 10000 nM
O=C(c1ccc(F)cc1)N1CCC(O)(Cn2cnc3c(cnn3-c3ccc(OCC4(F)CCC4)cc3)c2=O)CC1 [Compound I-696]	IC50	200 to 1000 nM
O=C(c1ccc(F)cc1)N1CCC(O)(Cn2cnc3c(cnn3-c3ccc(-c4cnn(C5CC5)c4)cc3)c2=O)CC1 [Compound I-1746]	IC50	200 to 1000 nM

Next compound, IC50 to be filled in.
Please fill in: IC50 reported for O=C(c1ccc(N2CCCN3CCCC3C2)cc1)N1CCC(O)(Cn2cnc3c(cnn3-c3ccc(F)cc3)c2=O)CC1 (centres unmarked) [Compound I-1683] = 1000 to 10000 nM

---

biological target: USP7 (Homo sapiens, UniProt Q93009); construct: USP7, construct USP7 (208-1102) 6*His, Viva Biotech; 6xHis (C); purchased Viva Biotech; test: USP7 Assay A (Ubitquin-Rhodamine 110 Assay); format: biochemical; details: USP7 assay A and B (table does not say which assay per compound); read-out: USP7_IC50
pIC50: −log10 of the molar value.
Below, each of the compounds is paired with its reported pIC50 value.

Worked cases, pIC50 given:
Chemical String	Tested System	pIC50
O=C(Nc1ccccc1)c1ccc(-n2ncc3c(=O)n(CC4(O)CCN(C(=O)C5CC5)CC4)cnc32)cc1	USP7 (Homo sapiens, UniProt Q93009)	5.00 to 6.00
CN1CCN(c2ccc(-n3ncc4c(=O)n(CC5(O)CCN(C(=O)c6ccccc6)CC5)cnc43)cc2F)CC1	USP7 (Homo sapiens, UniProt Q93009)	5.00 to 6.00
O=C(c1ccc(Oc2ccccc2)cc1)N1CCC(O)(Cn2cnc3c(cnn3-c3ccccc3)c2=O)CC1	USP7 (Homo sapiens, UniProt Q93009)	6.00 to 6.70

Next compound, pIC50 to be filled in.
Please fill in: pIC50 reported for `O=C(C[C@@H](C(F)F)n1cccn1)N1CCC(O)(Cn2cnc3c(cnn3-c3ccc(F)cc3)c2=O)CC1` = > 6.70

---

target: USP7 (Homo sapiens); construct: USP7, construct USP7 (208-1102) 6*His, Viva Biotech; 6xHis (C); purchased Viva Biotech; assay: USP7 Assay A (Ubitquin-Rhodamine 110 Assay); type: biochemical; conditions: USP7 assay A and B (table does not say which assay per compound); read-out: USP7_IC50
Quantity Kind: IC50

Chemical String	IC50
O=C(C1CC1)N1CCC(O)(Cn2cnc3c(cnn3-c3ccc(-c4cc(F)ccc4CO)cc3)c2=O)CC1	1 to 10 µM
C[C@H](CC(=O)N1CCC(O)(Cn2cnc3c(cnn3-c3ccc(F)cc3)c2=O)CC1)n1ncc2c1CCC2	> 10 µM
CN(C)C(=O)N1CCC(O)(Cn2cnc3c(cnn3-c3ccc(Oc4ccccc4)cc3)c2=O)CC1	> 10 µM
O=C(Nc1ccc(-n2ncc3c(=O)n(CC4(O)CCN(C(=O)C5CC5)CC4)cnc32)cc1)C1CC1	1 to 10 µM
CS(=O)(=O)Nc1ccc(-n2ncc3c(=O)n(CC4(O)CCN(C(=O)C5CC5)CC4)cnc32)cc1	1 to 10 µM
O=C(c1ccc(Oc2ccccn2)cc1)N1CCC(O)(Cn2cnc3c(cnn3-c3ccc(Cl)cc3)c2=O)CC1	1 to 10 µM

Next compound, IC50 to be filled in.
Please fill in: IC50 reported for `O=C(c1ccc(F)cc1)N1CCC(O)(Cn2cnc3c(cnn3-c3ccc(F)c(CO)c3)c2=O)CC1` = 1 to 10 µM

---

Below, each of the compounds is paired with its reported pIC50 value.
target: USP7 (Homo sapiens); construct: USP7, construct USP7 (208-1102) 6*His, Viva Biotech; 6xHis (C); purchased Viva Biotech; assay: USP7 Assay A (Ubitquin-Rhodamine 110 Assay); assay type: biochemical; settings: USP7 activity in USP7 assay A and B (table does not say which assay per compound); read-out: USP7_IC50
pIC50: −log10 of the molar value.

Compound	pIC50
O=C(C1CC(Nc2cccnc2)C1)N1CCC(O)(Cn2cnc3c(cnn3-c3ccc(F)cc3)c2=O)CC1 (centres unmarked) [Compound I-1031]	6.00 to 6.70

Please fill in: pIC50 reported for `Cc1ncc(C(=O)N2CCC(O)(Cn3cnc4c(cnn4-c4ccc(C5CC5)cc4)c3=O)CC2)o1` = 6.00 to 6.70

Please fill in: pIC50 reported for O=C(C1CCC(Oc2ncccn2)CC1)N1CCC(O)(Cn2cnc3c(cnn3-c3ccc(F)cc3)c2=O)CC1 (centres unmarked) [Compound I-748] = 6.00 to 6.70

Please fill in: pIC50 reported for `O=C(c1ccc(F)cc1)N1CCC(O)(Cn2cnc3c(cnn3-c3ccc(N4CCC5(CC4)CC(CO)C5)cc3)c2=O)CC1` = 6.00 to 6.70

---

Below, each of the compounds is paired with its reported pIC50 value.
target: USP7 (Homo sapiens, UniProt Q93009); construct: USP7, construct USP7 (208-1102) 6*His, Viva Biotech; 6xHis (C); purchased Viva Biotech; experiment: USP7 Assay A (Ubitquin-Rhodamine 110 Assay); assay type: biochemical; settings: USP7 activity in USP7 assay A and B (table does not say which assay per compound); read-out: USP7_IC50
pIC50: −log10 of the molar value.

Compound	pIC50
O=C(c1ncoc1Cc1ccccc1)N1CCC(O)(Cn2cnc3c(cnn3-c3ccc(F)cc3)c2=O)CC1 [Compound I-557]	6.00 to 6.70

Please fill in: pIC50 reported for CN1CCN(c2ccc(-n3ncc4c(=O)n(CC5(O)CCN(C(=O)C6(C)CC6)CC5)cnc43)cc2)CC1 [Compound I-1641] = > 6.70

Please fill in: pIC50 reported for O=C(c1ccc(F)cc1)N1CCC(O)(Cn2cnc3c(cnn3-c3ccc(-n4cc(CO)cn4)cc3)c2=O)CC1 [Compound I-1734] = 6.00 to 6.70

Please fill in: pIC50 reported for O=C(c1ccc(F)cc1)N1CCC(O)(Cn2cnc3c(cnn3-c3ccc(N4CCn5ncnc5C4)cc3)c2=O)CC1 [Compound I-1178] = 5.00 to 6.00

Data provenance: patent US9902728B2
